- Tgt: Macrophage colony-stimulating factor 1 receptor (Homo sapiens) (UniProt P07333)
- Sequence (P07333 whole entry): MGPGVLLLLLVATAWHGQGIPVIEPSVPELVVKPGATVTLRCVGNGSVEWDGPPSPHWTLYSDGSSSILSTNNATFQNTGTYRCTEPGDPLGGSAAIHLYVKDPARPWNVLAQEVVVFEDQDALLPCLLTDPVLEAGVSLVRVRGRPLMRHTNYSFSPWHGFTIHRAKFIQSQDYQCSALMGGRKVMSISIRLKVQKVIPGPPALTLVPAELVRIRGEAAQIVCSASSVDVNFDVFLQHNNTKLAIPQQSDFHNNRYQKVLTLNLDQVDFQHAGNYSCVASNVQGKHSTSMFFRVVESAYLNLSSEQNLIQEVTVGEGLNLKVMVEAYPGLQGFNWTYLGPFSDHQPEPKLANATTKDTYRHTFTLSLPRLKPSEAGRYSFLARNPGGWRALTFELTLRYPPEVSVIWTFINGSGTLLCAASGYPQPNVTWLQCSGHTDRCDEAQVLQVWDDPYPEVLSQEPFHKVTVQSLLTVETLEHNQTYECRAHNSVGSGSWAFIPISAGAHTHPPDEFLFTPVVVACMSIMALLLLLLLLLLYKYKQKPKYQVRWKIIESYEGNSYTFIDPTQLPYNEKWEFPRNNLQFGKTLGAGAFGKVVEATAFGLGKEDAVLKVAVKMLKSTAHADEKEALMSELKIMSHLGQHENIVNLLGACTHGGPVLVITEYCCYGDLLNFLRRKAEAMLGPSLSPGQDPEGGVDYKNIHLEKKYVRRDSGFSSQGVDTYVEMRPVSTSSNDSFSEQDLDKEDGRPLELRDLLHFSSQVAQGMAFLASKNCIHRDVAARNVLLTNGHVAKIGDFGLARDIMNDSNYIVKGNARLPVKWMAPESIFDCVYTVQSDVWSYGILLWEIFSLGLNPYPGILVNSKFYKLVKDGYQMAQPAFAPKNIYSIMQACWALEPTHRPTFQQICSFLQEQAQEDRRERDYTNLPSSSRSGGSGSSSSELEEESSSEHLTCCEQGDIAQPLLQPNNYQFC
- Assay Context: at 0.1 µM;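 also: value reported is the mean inhibition of FMS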
Measured Property: inhibition (%)
Answer with a number only, understood to be in %.

CN(C)c1ccc2c(c1)/C(=C/Nc1ccc(S(N)(=O)=O)cc1)C(=O)N2 | 4.82
CN(C)CCCNc1nccc(-c2c(-c3ccc(F)cc3)nn3cc(C(F)(F)F)ccc23)n1 | 2.1
O=C(Nc1n[nH]c2nc(-c3ccc(O)cc3)c(Br)cc12)C1CC1 | 3.87
NS(=O)(=O)c1ccc(N/N=C2\C(=O)Nc3ccc(C(=O)NCCCn4ccnc4)cc32)cc1 | 2.86
NC(=O)c1cc(-c2ccncc2)cc(-c2ccccc2)c1N | 22.8

CS(=O)(=O)CCNCc1ccc(-c2ccc3ncnc(Nc4ccc(OCc5ccccc5)c(Br)c4)c3c2)o1 has a reported inhibition of -1.9
